molecular target: Glucose transporter (Leishmania mexicana) (UniProt O61059); experiment: ST_JUDE_LEISH: Cytotoxicity at 2uM final concentration against transgenic Leishmania Mexicana promastigotes LmGT2 that are glucose transport deficient and complemented with the L. Mexicana glucose transporter 2. Activity is measured by DNA content using SYBR green in vitro; type: functional
Each entry below carries its recorded inhibition.
Your answer should be a number followed by the unit of measure.

Use the examples below as a reference point.
CCS(=O)(=O)Nc1ccc2c(c1)/C(=C(/Nc1ccc(CN3CCCCC3)cc1)c1ccccc1)C(=O)N2
82%
CN1CCCC(CN2CCN(Cc3ccc(-c4ccc(-c5nc6ccccc6[nH]5)s4)cc3)CC2)C1 (stereo not given)
9.58%
COc1cccc(C2CCN(CCN3CCC(CNC(=O)c4ccc(-c5ccc(C(F)(F)F)cc5)cc4)CC3)CC2)c1
1.17%
COc1ccc2c(Nc3ccc(N4CCN(C)CC4)cc3)cc(C)nc2c1
4.55%
COc1ccc(S(=O)(=O)NC2CCN(c3cc(C)nc(Nc4cccc(C#N)c4)n3)CC2)cc1
0.61%
O=C(Nc1ccc(OC2CCN(Cc3ccccc3)CC2)c(Cl)c1)c1cccs1
4.68%

Tell us which inhibition value is on record for COCc1ccc(CN2CCC(C(=O)Nc3ccc(-c4nc5ccccc5[nH]4)cc3)CC2)o1
5.81%

Name the recorded inhibition of the molecule listed here: N=C(N)NC(=O)Nc1cc(F)c(Cl)c(Br)c1
-2.83%

Give inhibition for the following molecule: N#Cc1cccc(NC(=O)Nc2ccc3c(c2)CN(Cc2c[nH]c4ncccc24)C3)c1
3.37%

Using known records, supply inhibition for O=c1c2ccccc2[nH]c2cc(Cl)ccc12
0.77%

====

target: Solute carrier family 2, facilitated glucose transporter member 1 (Homo sapiens); assay: ST_JUDE_LEISH: Cytotoxicity at 2uM final concentration against transgenic Leishmania Mexicana promastigotes LmGLUT1 that are glucose transport deficient and complemented with the human glucose transporter GLUT1. Activity is measured by DNA content using SYBR green in vitro; type: functional
Let's look at some compounds and their measured inhibition.
The reply should be a number in %, with the unit left off.

Here are 6 compounds together with their reported answers.
Fc1ccc2[nH]c(-c3ccc(-c4ccc(CNCCN5CCNCC5)cc4)cc3)nc2c1
-0.25
COc1ccc(Br)cc1/C=C/C(=O)Nc1ccc(C2CCN(C)CC2)cc1
3.58
C[C@@H](NC(=O)c1nn(-c2ccc(Cl)cc2)c(=O)c2ccccc12)C(C)(C)C
1.61
N=c1cc(C=Cc2ccc(O)cc2)[nH]c2ccccc12
2.26
O=C(Cc1c[nH]cn1)Nc1cccc(-c2cccc(-c3nc4cc(C(F)(F)F)ccc4[nH]3)c2)c1
9.44
COc1ccc2ncc(F)c(NC(=O)C3CCC(NCc4cc5cc(F)cc(F)c5[nH]4)CC3)c2n1 (stereo not drawn)
68.5

Please report inhibition for the following compound: CCOc1ccc(OCC(=O)Nc2nc(-c3ccc(OC)cc3)c(C)s2)cc1
0.75

Return inhibition for the following compound: COc1ccc2nccc([C@@H](O)CN3CCC(NC(=O)COc4nc(SCc5ccc(F)cc5)nc5c4CCC5)CC3)c2c1
1.06

Answer with reported inhibition of Oc1ccc(-c2ccccc2)cc1CNC1CCCCC1
2.86

# return recorded inhibition for input N=C(NC1CC1)c1ccc2[nH]c(CCCCCc3nc4cc(C(=N)NC5CC5)ccc4[nH]3)nc2c1
-1.14

Output inhibition of COc1ccc(CC(=O)Nc2ccc(-c3cccc(-c4nc5cccc(C)c5[nH]4)c3)cc2)cc1O
3.89

Provide only the value of recorded inhibition for O=C(NC1CCN(Cc2ccccc2)CC1)c1ccc(-c2nc3cc4ccccc4cc3[nH]2)s1
3.9

Give the value of inhibition reported for the following: COc1ccc(C2C(C(=O)Nc3cc(Cl)c(OC)cc3OC)c3ccccc3C(=O)N2C)cc1 (stereo not drawn)
0.28

Entry O=C(Nc1ccc(-c2nc3ccccc3[nH]2)cc1)C1CCN(Cc2ccccc2)CC1 needs its inhibition filled in; supply it.
16.2

Give inhibition for the following compound: Nc1ncc(Cc2cc(Cl)c(N)c3ncccc23)c(N)n1
2.6

Output measured inhibition for this item: Cc1ccc(C2(CN3CCC(NC(=O)c4cc[nH]n4)CC3)CCCCC2)cc1
0.21

Given Cc1cc(N2CCN(C)CC2)nc2ccc(NC(=O)Cc3cccc(C(F)(F)F)c3)cc12 , respond with its inhibition.
2.34

Return inhibition for the following compound: COc1ccc(NC(=O)NCC2CCCN(CCCCCNC(=O)/C=C/c3ccc(Cl)c(Cl)c3)C2)c(OC)c1 (stereo not drawn)
-0.03

Hello, please tell me recorded inhibition for this one: Cc1cc(N(C)C)nc(Nc2ccc(NC(=O)c3c(F)cccc3Cl)cc2)n1
7.36
